molecular target: Rap guanine nucleotide exchange factor 3 (Homo sapiens); assay: Confirmatory qHTS for agonist of cAMP-regulated guanine nucleotide exchange factor 3 (EPAC1) (AID 1645881); settings: EPAC1 Rap1B BODIPY-GDP exchange fluorescence; series mostly up to 154 µM; also: nearly all actives have a fitted effect of over 75% in size;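 as to activation: EPAC1 catalysed release of BODIPY-GDP from Rap1B seen as fluorescence loss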
Inconclusive results are not listed. Active and inactive are the calls of the source. Calls follow the shape of the dose curve; as a rule, active = well fitted activation curve with a large enough effect; inconclusive = small, poorly fitted or top-dose-only effect; inactive = no such curve, though single readings can be large or run the other way.
Choose one outcome from this list and give only that: true = active, false = inactive

These recorded examples may help you get a feel for the data.
>>> discrete_label("CC(=O)N1N=C(c2ccc(Cl)cc2)CC1c1ccc([N+](=O)[O-])cc1 (stereo not given)")
"false"
>>> discrete_label("Cc1cccc(NC(=O)CSCC(=O)N(C)CCOc2ccc(Cl)cc2)c1")
"false"
>>> discrete_label("O=C(/C=C/c1ccco1)NC(=S)Nc1cccc(-c2nc3ccccc3o2)c1")
"false"
>>> discrete_label("Cc1nc(Nc2ccc(S(=O)(=O)N3CCCCC3C)cc2)c2nnn(Cc3ccccc3)c2n1 (stereo not given)")
"false"
>>> discrete_label("CC(Oc1ccc(Cl)cc1Cl)C(=O)NC1=NN(c2ccccc2)C(=O)C1 (stereo not given)")
"false"
>>> discrete_label("O=C(CCn1cnc2onc(-c3ccc(F)cc3)c2c1=O)Nc1ccc(F)c(Cl)c1")
"false"
>>> discrete_label("CN(c1ccccc1)c1nc(N)c([N+](=O)[O-])c(N2CCCCC2)n1")
"false"
>>> discrete_label("COc1cc2c(c(OC)c1OC)C(c1ccc3c(c1)OCO3)CC(=O)O2 (stereo not given)")
"false"

**Q:** Entry `CC(C)Nc1nc(NC(C)C)nc(OCCOC(=O)c2ccccc2)n1` : call = ?
**A:** false

**Q:** Fill in: this test's call for `CCN(CC)c1ccc2cc(-c3nnc(-c4cccc(Cl)c4)o3)c(=O)oc2c1` is ___
**A:** true
